test system: male Wistar rats; experiment: Gastric ulcer index after oral dosing; type: in vivo, rat; conditions: oral, 6 h
measurement.label: Ulcerogenicity (in words)

COc1ccc2cc([C@H](C)C(=O)O)ccc2c1 | severely ulcerogenic
COc1ccc2cc([C@H](C)C(=O)OCCCCO[N+](=O)[O-])ccc2c1 | severely ulcerogenic

----------
assay: Hydrolysis in human liver microsomes; type: in vitro ADME; details: model input
Let's look at some compounds and their measured liver microsomal activity.
Please give a number only; it is taken to be in mL/min/organ.

Consider the following illustrative entries.
COc1ccc2cc(C(C)C(=O)OCOC(=O)C(CCC(=O)OCON=[N+]([O-])N(C)C)NC(=O)C(C)(C)C)ccc2c1 (stereo not shown) | 721224
COc1ccc2cc([C@H](C)C(=O)OCCCCO[N+](=O)[O-])ccc2c1 | 118566
COc1ccc2cc(C(C)C(=O)OCON=[N+]([O-])N3CCCC3)ccc2c1 (stereo not shown) [PYRO-NO-NAP, pyrrolidino-diazeniumdiolate-naproxen] | 567000

In the following, a different compound is considered.
Q: Consider the compound COc1ccc2cc(C(C)C(=O)OCOC(=O)CCC(NC(=O)C(C)(C)C)C(=O)OCON=[N+]([O-])N(C)C)ccc2c1 (stereo not shown) and give its measured liver microsomal activity.
Result: 434763
